Measured TIME of individual entries
molecular target: Botulinum neurotoxin type A (Clostridium botulinum (strain Hall / ATCC 3502 / NCTC 13319 / Type A)); experiment: Inhibition of Clostridium botulinum Hall BoNT/A-mediated paralysis in CD1 mouse phrenic nerve hemidiaphragm assessed as time required to 50% loss of twitch tension at 2 uM measured upto 5 hrs (reference value: 62 mins)
Express your answer in h, writing the number without its unit.

Name the recorded TIME of the molecule listed here: Cc1cc(O)c2c(c1)C(=O)c1c(c(O)cc(O)c1-c1c(O)cc(O)c3c1C(=O)c1cc(C)cc(O)c1C3=O)C2=O [SKYRIN]
1.07

Name the recorded TIME of the molecule listed here: C[C@H]1Oc2cc3c(-c4c(O)cc(O)c5c(O)c6c(cc45)O[C@H](C)[C@@H](C)C6=O)c(O)cc(O)c3c(O)c2C(=O)[C@@H]1C [CHAETOCHROMIN A]
1.73

Name the recorded TIME of the molecule listed here: CCOc1ccc(C(Nc2cccnc2)c2cc(Cl)c3cccnc3c2O)cc1 (racemic)
5

Name the recorded TIME of the molecule listed here: CCC[C@H]1Cc2cc3c(-c4c(O)cc(O)c5c(O)c6c(cc45)C[C@H](CCC)OC6=O)c(O)cc(O)c3c(O)c2C(=O)O1 (single isomer, unassigned; atropisomer)
2.9

Name the recorded TIME of the molecule listed here: CCC[C@H]1Cc2cc3c(-c4c(O)cc(O)c5c(O)c6c(cc45)C[C@H](CCC)OC6=O)c(O)cc(O)c3c(O)c2C(=O)O1
3.15
